B1: ZNF511 (parent)
chain: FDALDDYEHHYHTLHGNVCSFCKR

Variants of: B1
Experiment summary: protein stability index of a GFP-peptide fusion (GPS, HEK-293T) (PSI 1-6); higher = more stable;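 further: lentivirally expressed fusions sorted by FACS into six bins by GFP to DsRed ratio, PSI derived from sequencing read proportions per bin multiplied by bin number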
Assay conditions: c terminus: a fixed tail appended
protein stability index reference
Outcome measure: protein stability index

>>> df
   mutation_key  recorded_number
0           Y7M             4.29
1          K23F             2.67
2          V18A              3.7
3          K23V             3.28
4          V18H             2.93
5          C22E              3.2
6          K23A             3.47

# credit: the supplement of paper PMC10567573
